# system name: T1, puroindoline A (Triticum aestivum, UniProt P33432 29-148)
# T1 construct: puroindoline A (PINA) of Triticum aestivum cv; Recital, purified from grain; about 13 kDa, five disulfide bonds, tryptophan-rich domain; The Pina allele of cv; The preparation probably holds several C-terminally processed forms; also called PINA
# T1 sequence (looked up): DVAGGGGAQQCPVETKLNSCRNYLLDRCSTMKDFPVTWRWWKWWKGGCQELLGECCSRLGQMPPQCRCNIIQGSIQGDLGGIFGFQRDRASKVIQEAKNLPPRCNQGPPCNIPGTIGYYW
# assay method text: SPR; (PQQPY)8 covalently bound to a CM5 chip; PINA 2 to 20 μM flowed over, 25°C, Hepes buffer pH 7.4; steady-state fit, 1:1 Langmuir model
# assay setup: both partners purified
parameter: Kd (µM)
The response must be a number in µM with no trailing unit.

Indicate the recorded Kd value for this binder: PQQPYPQQPYPQQPYPQQPYPQQPYPQQPYPQQPYPQQPY (written out from '(PQQPY)8'; measured mass 4924.5 Da, theoretical 4924.3 Da; The fusion is printed as thioredoxin-DP-(PQQPY)8 and was cut in formic acid; The printed theoretical mass of 4924.3 Da fits 40 residues (eight repeats, monoisotopic) without a further proline; also called (Pro-Gln-Gln-Pro-Tyr)8; spr8; source: BLR strain, pETb32 vector, thioredoxin fusion; not shown: thioredoxin, …) [recombinant polypeptide (PQQPY)8]
7.22
